These data points were gathered from PubChem BioAssay.

System: Noggin (protein binding on small-molecule microarray)
experiment.description: Noggin binders on small-molecule microarray, primary screen, biochemical, 635/667 nm fluorescence (AID 1095);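 also: score merges 667 nm feature fluorescence with signal to noise over triplicate slides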
cond: 635 nm fluorescence, higher = more signal
Response key: 1 (yes) means composite z-score >= 0.7; 0 (no) means composite z-score < 0.7.

Hi team, for O=C1N(CCS(=O)(=O)c2ccccc2)c2ccccc2C[C@@]12COC(c1ccc(OCCCO)cc1)=N2 , is the recorded composite z-score at or above 0.7?
1 (yes)

Record N[C@@H](Cc1ccccc1)Cn1cc(-c2ccccc2)nn1 ; criterion: composite z-score no lower than 0.7. Met?
0 (no)

Could you verify whether the entry COCCOC(=O)N1C(=O)[C@@]2(c3cc(C#CCC(C(=O)OC)C(=O)OC)ccc31)[C@H](C(=O)N1CCN(c3ncccn3)CC1)[C@H]1C(=O)O[C@H](c3ccccc3)[C@H](c3ccccc3)N1[C@@H]2c1ccc(OCCO)cc1 shows composite z-score of no less than 0.7?
0 (no)

Can Cc1ccc([C@H]2C(C(=O)O)=C[C@@H](C)N2S(=O)(=O)c2ccc(C)cc2)cc1 be said to have composite z-score at or above 0.7?
0 (no)

API: above_or_equal(metric=composite z-score, cutoff=0.7) for item O=C1O[C@H](c2ccccc2)[C@H](c2ccccc2)N2[C@H]1[C@@H](C(=O)N1CCN(c3ncccn3)CC1)[C@]1(C(=O)Nc3ccccc31)[C@H]2c1ccc(OCCO)cc1
1 (yes)

Kindly determine if composite z-score recorded for N#Cc1ccc(NN2C(C(O)c3cccs3)C=CC3C(=O)N(c4ccccc4)C(=O)C32)cc1 (configuration not stated) is above or exactly 0.7.
0 (no)

* * *

experiment.description: small-molecule microarray binders of probe aNog, primary screen, biochemical, biotinylated probe, 635/667 nm fluorescence (AID 1115);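 also: probe is biotinylated aNog protein used at 0.15 µg/mL for 1 h at 4 C; z-score combines 667 nm fluorescence of each spot with its signal to noise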
cond: higher = more signal
Provide the reported composite z-score of each item.
Form rule: numeric answer, no unit written next to it.

Supply measured composite z-score of CC=CC(O)C1C=CC2C(=O)N(c3ccccc3)C(=O)C2N1Nc1ccc(C(C)C)cc1 (configuration not stated) in your reply.
1.65

Answer with the recorded composite z-score of NC(=O)NCC#Cc1ccc2c(c1)[C@]1(C(=O)N2)[C@H](C(=O)NC[C@H](O)c2ccccc2)[C@H]2C(=O)O[C@H](c3ccccc3)[C@H](c3ccccc3)N2[C@@H]1c1ccc(O)cc1 only.
0.921

Provide composite z-score value for the following compound: O=C(CS)NCCCCCCNC(=O)[C@H]1C[C@H]2C(=O)N3CCC[C@H]3C(=O)N2[C@H]1c1cccc(OCCO)c1
-0.353

Report measured composite z-score; entry is O=C1C2C=CC(C(O)c3ccc(F)cc3)N(Nc3ccccc3)C2C(=O)N1c1ccccc1 (configuration not stated)
0.195

Annotate the compound O=C1O[C@H](c2ccccc2)[C@H](c2ccccc2)N2[C@H]1[C@@H](C(=O)NC[C@H](O)c1ccccc1)[C@]1(C(=O)Nc3ccc(C#CCCO)cc31)[C@H]2c1ccc(O)cc1 with its measured composite z-score.
-0.0725

Respond only with composite z-score recorded for CC(C)Cc1ccc(CN2CC[C@@H](NS(=O)(=O)c3ccccc3)C2)cc1
-0.438

Read the entry CCOC(=O)C1=C[C@@H](C(C)C)N(S(=O)(=O)c2ccc(C)cc2)[C@H]1c1ccc(C(C)C)cc1 and write its reported composite z-score.
-0.58
